Measured GI50 values are reported for all entries that follow.
Tested on: SW-620
Experiment: NCI tumour cell line growth inhibition, 48 h
Active and inactive are the calls of the source. No stated cut-off is given here; in the data, active = GI50 up to about 1.1 µM and inactive = higher.

| compound | GI50 |
| --- | --- |
| FC1OC2OC1C(OCc1ccccc1)C(OCc1ccccc1)C2OCc1ccccc1 (centres undefined) | 40.6 µM (inactive) |
| O=C(O)c1cccc(OCCO)c1 | > 100 µM (inactive) |
| CSc1cnc2ccccc2c1Sc1c[nH]c2ccccc2c1=O | 3.56 µM (inactive) |
| OCC1c2ccccc2-n2nc(-c3ccccc3)c(O)c21 (centres undefined) | 29.3 µM (inactive) |
| COC(=O)C1=C([C@H]2COC(C)(C)O2)[C@H]2C[C@@H]1[C@@H]1OC(C)(C)O[C@@H]12 | > 100 µM (inactive) |
| Oc1c(Br)cc(/C=C/c2cccc(/C=C/c3cc(Br)c(O)c(Br)c3)n2)cc1Br | 17.7 µM (inactive) |
| Cn1c(=O)oc2cc(C(O)CN3CCN(Cc4ccc5c(c4)OCO5)CC3)ccc21 (centres undefined) | > 100 µM (inactive) |
| O=C(CSCC(=O)N/N=C\c1ccc(O)c(O)c1O)N/N=C\c1ccc(O)c(O)c1O | 3.39 µM (inactive) |
| Cc1ccc(SSc2ccc(C)cc2C(=O)O)c(C(=O)O)c1 | > 100 µM (inactive) |
